assay: Ratio of drug uptake in C57BL/6 mouse brain to plasma at 20 mg/kg, ip measured after 1 to 12 hrs by LC-MS/MS analysis; assay type: ADME, organism-based; conditions: read-out: BPR
Measured Metric: Kp
Form field (numeric): enter value without unit.

// query Which Kp reading was recorded for the compound CC1CCN(Cc2no[n+]([O-])c2-c2ccc(F)cc2)CC1 ?
// result 0.68

---

experiment: Ratio of drug uptake in C57BL/6 mouse brain to plasma at 20 mg/kg, po measured after 1 to 12 hrs by LC-MS/MS analysis; assay type: ADME, organism-based; settings: read-out: BPR
Measured Metric: Kp
Form field (numeric): enter value without unit.

// query Which Kp reading was recorded for the compound CC1CCN(Cc2no[n+]([O-])c2-c2ccc(F)cc2)CC1 ?
// result 1.49
